Method: Pharmacokinetics in mice IV 3 and PO 10 mg/kg; plasma, lung and liver
Experimental parameters: mouse, in vivo, po, 10 mg/kg, AUC0-INF, mice; Compound P3 dosed PO 10 mg/kg; Liver
Measured quantity: AUC(0-inf) (ng·h/mL)
Just the number please, in ng·h/mL, no unit attached.

Any idea what AUC(0-inf) was measured for O=C(Nc1ccc([N+](=O)[O-])cc1Cl)c1cc(Cl)ccc1OC(=O)N1CCNCC1 [Compound P3] ?
657

---

Method: Pharmacokinetics in mice IV 3 and PO 10 mg/kg; plasma, lung and liver
Experimental parameters: mouse, in vivo, po, 10 mg/kg, AUC0-last, mice; Compound P3 dosed PO 10 mg/kg; Plasma
Measured quantity: AUC(0-t)
State the value, then name its unit.

Any idea what AUC(0-t) was measured for O=C(Nc1ccc([N+](=O)[O-])cc1Cl)c1cc(Cl)ccc1OC(=O)N1CCNCC1 [Compound P3] ?
3510 ng·h/mL

---

Method: Pharmacokinetics in mice IV 3 and PO 10 mg/kg; plasma, lung and liver
Experimental parameters: mouse, in vivo, po, 10 mg/kg, t1/2, mice; Compound P3 dosed PO 10 mg/kg; Plasma
Measured quantity: half-life (h)
Just the number please, in h, no unit attached.

Any idea what half-life was measured for O=C(Nc1ccc([N+](=O)[O-])cc1Cl)c1cc(Cl)ccc1OC(=O)N1CCNCC1 [Compound P3] ?
2.2

---

Method: Pharmacokinetics in mice IV 3 and PO 10 mg/kg; plasma, lung and liver
Experimental parameters: mouse, in vivo, iv, 3 mg/kg, t½, mouse Plasma; Compound P3 dosed IV 3 mg/kg
Measured quantity: half-life (h)
Just the number please, in h, no unit attached.

Any idea what half-life was measured for O=C(Nc1ccc([N+](=O)[O-])cc1Cl)c1cc(Cl)ccc1OC(=O)N1CCNCC1 ?
3.3

---

Method: Pharmacokinetics in mice IV 3 and PO 10 mg/kg; plasma, lung and liver
Experimental parameters: mouse, liver, po, 10 mg/kg
Measured quantity: Cmax (ng/mL)
Just the number please, in ng/mL, no unit attached.

Any idea what Cmax was measured for O=C(Nc1ccc([N+](=O)[O-])cc1Cl)c1cc(Cl)ccc1O [Niclosamide, reference compound] ?
882

---

Method: Pharmacokinetics in male hamsters, plasma and lung, IV 3 mg/kg or PO 30 mg/kg
Experimental parameters: male, hamster, in vivo, po, 30 mg/kg, Ratio (Lung/Plasma), Mean, Compound P3 PO 30 mg/kg, 2 h
Measured quantity: Kp at 2 h
# answer = number (no unit)

Any idea what Kp at 2 h was measured for O=C(Nc1ccc([N+](=O)[O-])cc1Cl)c1cc(Cl)ccc1OC(=O)N1CCNCC1 ?
98

---

Method: Pharmacokinetics in mice IV 3 and PO 10 mg/kg; plasma, lung and liver
Experimental parameters: mouse, plasma, iv, 3 mg/kg
Measured quantity: Cmax (ng/mL)
Just the number please, in ng/mL, no unit attached.

Any idea what Cmax was measured for O=C(Nc1ccc([N+](=O)[O-])cc1Cl)c1cc(Cl)ccc1O [Niclosamide, reference compound] ?
168

---

Method: in vitro
Experimental parameters: rat, microsomes
Measured quantity: half-life

Any idea what half-life was measured for O=C(Nc1ccc(C(F)(F)F)c(F)c1)c1cc(Br)ccc1O [Compound 59] ?
> 30 min

---

Method: in vivo
Experimental parameters: C57BL/6, mouse, po, 100 mg/kg, tmax, Compound P3 in plasma, PO 100 mg/kg (PO_B), C57BL/6 mice, individual mice
Measured quantity: Tmax
State the value, then name its unit.

Any idea what Tmax was measured for O=C(Nc1ccc([N+](=O)[O-])cc1Cl)c1cc(Cl)ccc1OC(=O)N1CCNCC1 ?
1 h
